Data provenance is paper PMC7464788.

Entries annotated with measured MBC E. coli
- Test system: Escherichia coli (NCTC10418)
- Type: cell-based
Positions of bridges follow the written chain, without caps; N, C: chain ends. Residues, ends and D or L forms follow the SMILES beside them.
Give just the number in µM; leave the unit off.

molecule	MBC E. coli / µM
CC[C@H](C)[C@@H]1NC(=O)[C@H](C)NC(=O)[C@@H](NC(=O)[C@H](Cc2ccccc2)NC(=O)[C@@H](NC(=O)[C@H](CCCCN)NC(=O)[C@H](Cc2c[nH]c3ccccc23)NC(=O)[C@@H]2CCCN2C(=O)[C@H](CC(C)C)NC(=O)[C@H](Cc2ccccc2)NC(=O)[C@@H](N)CCCCN)[C@@H](C)CC)CSSC[C@@H](C(=O)O)NC(=O)[C@H](CCCCN)NC(=O)[C@H](CCCCN)NC(=O)[C@H]([C@@H](C)O)NC1=O [KWB2] (H-KFLPWKIFCAITKKC-OH; disulfide 9-15)	32
CC[C@H](C)[C@@H]1NC(=O)[C@H](C)NC(=O)[C@@H](NC(=O)[C@H](Cc2ccccc2)NC(=O)[C@@H](NC(=O)[C@H](CCCCN)NC(=O)[C@H](Cc2c[nH]c3ccccc23)NC(=O)[C@@H]2CCCN2C(=O)[C@H](Cc2c[nH]c3ccccc23)NC(=O)[C@H](Cc2ccccc2)NC(=O)[C@@H](N)CCCCN)[C@@H](C)CC)CSSC[C@@H](C(=O)O)NC(=O)[C@H](CCCCN)NC(=O)[C@H](CCCCN)NC(=O)[C@H]([C@@H](C)O)NC1=O [KW^3,5B2] (H-KFWPWKIFCAITKKC-OH; disulfide 9-15)	32
CC[C@H](C)[C@@H]1NC(=O)[C@H](C)NC(=O)[C@@H](NC(=O)[C@H](Cc2ccccc2)NC(=O)[C@@H](NC(=O)[C@H](CCCCN)NC(=O)[C@@H]2CCCN2C(=O)[C@H](CC(C)C)NC(=O)[C@@H](N)Cc2ccccc2)[C@@H](C)CC)CSSC[C@@H](C(=O)O)NC(=O)[C@H](CCCCN)NC(=O)[C@H](CCCCN)NC(=O)[C@H]([C@@H](C)O)NC1=O [Peptide B1A2] (H-FLPKIFCAITKKC-OH; disulfide 7-13)	256

Inquiry: State the recorded MBC E. coli for this entry: CC[C@H](C)[C@@H]1NC(=O)[C@H](C)NC(=O)[C@@H](NC(=O)[C@H](Cc2ccccc2)NC(=O)[C@@H](NC(=O)[C@H](CCCCN)NC(=O)[C@H](Cc2c[nH]c3ccccc23)NC(=O)[C@@H]2CCCN2C(=O)[C@H](CC(C)C)NC(=O)[C@H](Cc2ccccc2)NC(=O)[C@H](CCCCN)NC(=O)[C@@H](N)CCCCN)[C@@H](C)CC)CSSC[C@@H](C(=O)O)NC(=O)[C@H](CCCCN)NC(=O)[C@H](CCCCN)NC(=O)[C@H]([C@@H](C)O)NC1=O [KKWB2] (H-KKFLPWKIFCAITKKC-OH; disulfide 10-16)
Reply text: 32
